meta.source: ChEMBL document CHEMBL1201862

- System: PC-3
- EXPERIMENT: NCI tumour cell line growth inhibition, 48 h
The source made the active and inactive calls. No stated cut-off is given here; in the data, active = GI50 up to about 1.1 µM and inactive = higher.
EXPERIMENTAL READOUT: GI50

# COMPOUND, REPORTED RESULT
records = [
    ("CSc1[nH]cnc1C(N)=S", "> 100 µM (inactive)"),
    ("O=C(Sc1c(-c2ccccc2)c(=O)n(-c2ccccc2)c(=S)n1-c1ccccc1)c1ccccc1", "> 100 µM (inactive)"),
    ("COC1=C2CC(C)CC(OC)C(OC(=O)CCCN)C(C)/C=C(\\C)C(OC(N)=O)C(OC)/C=C\\C=C(/C)C(=O)NC(=CC1=O)C2=O (stereo unspecified)", "9.2 µM (inactive)"),
    ("CCOC(=O)c1nc2cc(C(F)(F)F)ccc2nc1Oc1ccc(OC)cc1", "> 100 µM (inactive)"),
    ("CC1(C)[N+]([O-])=[N+]([O-])C1(C)Br (stereo unspecified)", "> 100 µM (inactive)"),
    ("C=CC1(C)OC2(CCN(C(=O)OCC)CC2)OC1C (stereo unspecified)", "> 100 µM (inactive)"),
    ("CN(CCC#N)c1ccc(/C=C2\\SC(=S)NC2=O)cc1", "34.3 µM (inactive)"),
    ("c1cncc(-c2ncc3cccnc3n2)c1", "> 100 µM (inactive)"),
    ("Cc1ccc(NC(=O)c2cc(S(=O)(=O)N3CCNNC3=O)c(S)cc2Cl)cc1", "> 100 µM (inactive)"),
    ("O=C1N/C(=N/N=C\\c2ccccc2)N/C1=C/c1ccc(Cl)cc1", "18.4 µM (inactive)"),
    ("CN(C)Cc1cc(C(C)(C)C)cc(CNC2CCCCC2)c1O", "24.6 µM (inactive)"),
]
